molecular target: Protein farnesyltransferase (Homo sapiens, UniProt P49354+P49356); assay: Inhibitory activity against human purified recombinant farnesyltransferase (hFT)
pIC50: −log10 of the molar value.
Attribute Measured: pIC50

NCCc1nc(CN2CCN(C(=O)c3cccc4ccccc34)Cc3ccccc32)c[nH]1 = 5.89

A = O=C(c1cccc2ccccc12)N1CCN(Cc2c[nH]cn2)c2cc(NS(=O)(=O)c3ccccc3)ccc2C1
B = O=C(c1ccccc1NCc1ccccc1)N1CCN(Cc2cnc[nH]2)c2ccccc2C1
C = O=C(c1cccc2ccccc12)N1CCN(Cc2cnc[nH]2)c2ccc(-c3ccccc3)cc2C1
Ask: Give the ascending ranking of the items by reported pIC50. // list labels; follow requested order
Reply: B, A, C

1 = O=C(c1cccc2ccccc12)N1CCN(Cc2c[nH]cn2)c2ccc(-c3ccccn3)cc2C1
2 = O=C(c1cccc2ccccc12)N1CCN(Cc2ncc[nH]2)c2ccccc2C1
Ask: Please choose the item with the lower pIC50 value from this pair: 1 and 2 Mark your answer with the label of the selected entry.
Reply: 2
(2: 4.68, 1: 6.75)

P = O=C(c1cccc2ccccc12)N1CCN(CCCc2ncc[nH]2)c2ccccc2C1
Q = c1ccc(-c2ccc3c(c2)CN(Cc2cccc4ccccc24)CCN3Cc2cnc[nH]2)cc1
Ask: Please choose the item with the lower pIC50 value from this pair: P and Q Mark your answer with the label of the selected entry.
Reply: Q

1 = NCc1ncc(CN2CCN(C(=O)c3cccc4ccccc34)Cc3ccccc32)[nH]1
2 = O=C(Nc1ccc2c(c1)N(Cc1cnc[nH]1)CCN(C(=O)c1cccc3ccccc13)C2)OC1CCCCC1
3 = COCC[C@H]1CN(C(=O)c2cccc3ccccc23)CCN1CCCc1c[nH]cn1
4 = COCC[C@H]1CN(C(=O)c2cccc3ccccc23)CCN1CCc1c[nH]cn1
Ask: Put the entries in order of pIC50, starting with the largest number. // list labels; follow requested order
Reply: 2, 1, 4, 3

###

molecular target: Protein farnesyltransferase (Homo sapiens, UniProt P49354+P49356); assay: Phenotypic reversion of H-Ras transformed NIH3T3 cells at 5 uM.; assay type: functional, cell-based; conditions: Mus musculus
Attribute Measured: Reversion activity (%)

Known results for compounds:
O=C(OCc1ccccc1)N1CCN(Cc2c[nH]cn2)c2ccc(-c3ccccc3)cc2C1 = 0
O=C(c1cccc2ccccc12)N1CCN(Cc2c[nH]cn2)c2ccc(C3CCCCC3)cc2C1 = 20
c1ccc(-c2ccc3c(c2)CN(Cc2cccc4ccccc24)CCN3Cc2c[nH]cn2)cc1 = 0
CC(=O)Nc1ccc2c(c1)N(Cc1c[nH]cn1)CCN(C(=O)c1cccc3ccccc13)C2 = 0
O=C(Nc1ccc2c(c1)N(Cc1c[nH]cn1)CCN(C(=O)c1cccc3ccccc13)C2)C1CCCCC1 = 45
N#C/N=C(/Nc1ccc(Cl)cc1)N1CCN(Cc2c[nH]cn2)c2ccc(-c3ccccc3)cc2C1 = 5
O=C(c1ccccc1SCCO)N1CCN(Cc2c[nH]cn2)c2ccc(-c3ccccc3)cc2C1 = 90
O=S(=O)(c1cccc2ccccc12)N1CCN(Cc2c[nH]cn2)c2ccc(-c3ccccc3)cc2C1 = 25

A = O=C(c1ccccc1OC(F)(F)F)N1CCN(Cc2c[nH]cn2)c2ccc(-c3ccncc3)cc2C1
B = O=C(Nc1ccc2c(c1)N(Cc1c[nH]cn1)CCN(C(=O)c1cccc3ccccc13)C2)NC1CCCCC1
Ask: Please choose the item with the lower Reversion activity value from this pair: A and B Mark your answer with the label of the selected entry.
Reply: B

P = O=C(Nc1ccc2c(c1)N(Cc1c[nH]cn1)CCN(C(=O)c1cccc3ccccc13)C2)OC1CCCCC1
Q = O=C(c1cccc2ccccc12)N1CCN(Cc2c[nH]cn2)c2cc(NS(=O)(=O)c3ccccc3)ccc2C1
R = O=C(c1cccc2ccccc12)N1CCN(Cc2c[nH]cn2)c2ccc(Br)cc2C1
S = Cc1cccc2c1N(Cc1c[nH]cn1)CCN(C(=O)c1cccc3ccccc13)C2
Ask: Put the entries in order of Reversion activity, starting with the largest number. // list labels; follow requested order
Reply: P, S, R, Q

I = O=C(Nc1ccc2c(c1)N(Cc1c[nH]cn1)CCN(C(=O)c1cccc3ccccc13)C2)c1ccccc1
II = O=C(N1CCN(Cc2c[nH]cn2)c2ccc(-c3ccccc3)cc2C1)N1CCCc2ccccc21
Ask: Please choose the item with the lower Reversion activity value from this pair: I and II Mark your answer with the label of the selected entry.
Reply: II

###

molecular target: Protein farnesyltransferase (Homo sapiens, UniProt P49354+P49356); test: Inhibitory activity against human purified recombinant farnesyltransferase (hFT)
pIC50: −log10 of the molar value.
Attribute Measured: pIC50

Known results for molecules:
O=C(c1cccc2ccccc12)N1CCN(Cc2c[nH]cn2)c2ccc(-c3ccncc3)cc2C1 = 7.81
O=C(N1CCN(Cc2cnc[nH]2)c2ccc(-c3ccccc3)cc2C1)N1CCCc2ccccc21 = 6.69
COCC[C@H]1CN(C(=O)c2cccc3ccccc23)CCN1C(=O)Cc1cnc[nH]1 = 4.47
COc1ccc2ccccc2c1C(=O)N1CCN(Cc2cnc[nH]2)c2ccc(-c3ccccc3)cc2C1 = 7.24
O=C(c1cccc2ccccc12)N1CCN(Cc2cnc[nH]2)c2cc(Cl)ccc2C1 = 6.27
O=S(=O)(c1cccc2ccccc12)N1CCN(Cc2c[nH]cn2)c2ccccc2C1 = 6.32

A = COC(=O)c1ccccc1S(=O)(=O)N1CCN(Cc2c[nH]cn2)c2ccccc2C1
B = O=C(c1cccc2ccccc12)N1CCN(Cc2cnc[nH]2)c2ccc(Br)cc2C1
C = O=C(Nc1ccc2c(c1)N(Cc1c[nH]cn1)CCN(C(=O)c1cccc3ccccc13)C2)NC1CCCCC1
Ask: Put the entries in order of pIC50, starting with the largest number. // list labels; follow requested order
Reply: C, B, A
(C: 7.45, B: 6.64, A: 6.14)

###

target: Protein farnesyltransferase (Homo sapiens, UniProt P49354+P49356); test: Inhibitory activity against human purified recombinant farnesyltransferase (hFT)
Attribute Measured: IC50 (nM)

Known results for molecules:
O=C(c1ccccc1OC(F)(F)F)N1CCN(Cc2cnc[nH]2)c2ccc(-c3ccncc3)cc2C1 = 24
O=C(c1cccc2ccccc12)N1CCN(Cc2c[nH]cn2)c2ccccc2C1 = 460
O=C(c1cccc2ccccc12)N1CCN(Cc2c[nH]cn2)c2ccc(-c3cccnc3)cc2C1 = 145

I = O=C(Nc1ccc2c(c1)N(Cc1c[nH]cn1)CCN(C(=O)c1cccc3ccccc13)C2)c1ccccc1
II = O=C(c1ccccc1-c1ccccc1)N1CCN(Cc2cnc[nH]2)c2ccccc2C1
Ask: Please choose the item with the lower IC50 value from this pair: I and II Mark your answer with the label of the selected entry.
Reply: I
(I: 28.5 nM, II: 320 nM)

###

biological target: Protein farnesyltransferase (Homo sapiens, UniProt P49354+P49356); test: Inhibitory activity against human purified recombinant farnesyltransferase (hFT)
pIC50: −log10 of the molar value.
Attribute Measured: pIC50

Known results for molecules:
COCC[C@H]1CN(C(=O)c2cccc3ccccc23)CCN1Cc1c[nH]cn1 = 5.89
c1ccc(-c2ccc3c(c2)CN(c2nnnn2-c2ccccc2)CCN3Cc2cnc[nH]2)cc1 = 6.15
O=C(c1ccccc1SCCO)N1CCN(Cc2cnc[nH]2)c2ccc(-c3ccccc3)cc2C1 = 6.91

P = O=C(c1cccc2ccccc12)N1CCN(CCc2c[nH]cn2)c2ccccc2C1
Q = O=C(Cc1ccccc1Oc1ccccc1)N1CCN(Cc2c[nH]cn2)c2ccccc2C1
R = O=C(c1cccc2ccccc12)N1CCN(Cc2cnc[nH]2)c2ccc(C3CCCCC3)cc2C1
S = O=C(Nc1ccc2c(c1)N(Cc1c[nH]cn1)CCN(C(=O)c1cccc3ccccc13)C2)C1CCCCC1
T = COCC[C@H]1CN(C(=O)c2cccc3ccccc23)CCN1C(=O)CCc1cnc[nH]1
Ask: Give the ascending ranking of the items by reported pIC50. // list labels; follow requested order
Reply: T, Q, P, R, S

A = O=C(c1cccc2ccccc12)N1CCN(Cc2cncn2Cc2ccccc2)c2ccccc2C1
B = CC(=O)Nc1ccc2c(c1)N(Cc1cnc[nH]1)CCN(C(=O)c1cccc3ccccc13)C2
C = O=C(c1cccc2ccccc12)N1CCN(Cc2cnc[nH]2)Cc2ccccc21
Ask: Give the ascending ranking of the items by reported pIC50. // list labels; follow requested order
Reply: C, A, B
